System name: Protein-arginine deiminase type-4 (Homo sapiens, UniProt Q9UM07)
Sequence (Q9UM07 whole entry): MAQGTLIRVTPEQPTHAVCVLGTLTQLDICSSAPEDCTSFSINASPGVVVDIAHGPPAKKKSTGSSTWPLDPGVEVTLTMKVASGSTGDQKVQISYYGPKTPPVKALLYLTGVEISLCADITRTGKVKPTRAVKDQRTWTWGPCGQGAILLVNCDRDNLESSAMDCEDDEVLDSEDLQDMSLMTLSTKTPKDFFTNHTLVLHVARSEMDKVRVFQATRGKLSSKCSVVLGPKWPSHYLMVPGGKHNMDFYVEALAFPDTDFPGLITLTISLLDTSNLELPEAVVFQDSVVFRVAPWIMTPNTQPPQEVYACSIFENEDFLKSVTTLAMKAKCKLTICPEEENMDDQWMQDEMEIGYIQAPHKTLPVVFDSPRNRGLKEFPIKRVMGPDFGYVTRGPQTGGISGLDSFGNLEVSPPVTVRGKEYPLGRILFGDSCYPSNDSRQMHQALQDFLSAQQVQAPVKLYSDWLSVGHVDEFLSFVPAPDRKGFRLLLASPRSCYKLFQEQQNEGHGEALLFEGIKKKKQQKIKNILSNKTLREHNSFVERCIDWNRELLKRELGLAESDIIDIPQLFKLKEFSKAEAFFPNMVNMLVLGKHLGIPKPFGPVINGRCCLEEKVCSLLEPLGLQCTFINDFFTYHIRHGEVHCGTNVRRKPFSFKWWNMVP
Protocol: RFMS Human PAD4 Functional Assay 1
pIC50: −log10 of the molar value.
Readout label: pIC50

INSERT INTO measurements (compound, quantitative_readout) VALUES
  ('COc1cc(C(=O)N2CC3CCC2[C@@H]3N)cn2nc(-c3cc4ccc(C(C)(C)O)cc4n3CC3CC3)c(C)c12 (stereo not given in full)', 7.52),
  ('COc1cc(C(=O)N2CCC[C@@H](N)C2)cn2nc(-c3cc4ccc(-c5cc(F)c(C(N)=O)cc5C)nc4n3CC3CC3)c(C)c12', 6.85),
  ('COc1cc(C(=O)N2C[C@H](N)C[C@@H](F)C2)cn2nc(-c3cc4ccc(Cl)nc4n3CC3CC3)c(C)c12', 6.28),
  ('Cc1c(-c2cc3ccc(-c4ccc5c(c4)CNC5=O)nc3n2CC2CC2)nn2cc(C(=O)N3CC4CCC3[C@@H]4N)ccc12 (stereo not given in full)', 7.26),
  ('COc1cc(C(=O)N2C[C@H](N)C[C@@H](F)C2)cn2nc(-c3cc4ccc(-c5cc(F)c(C(N)=O)cc5C)nc4n3CC3CC3)c(C)c12', 6.82);
